# Test system: NCI-H460 lung
# assay.method.text: NCI-60 one-dose screen, 48 h
# run.conditions: 10 µM unless noted
# Method: Growth inhibition of the NCI-H460 human Non-Small Cell Lung tumor cell line is measured as a screen for anti-cancer activity. Cells are grown in 96 well plates and exposed to the test compound for 48 hours. Compounds are tested at a single concentration, which is 10^-5 M for most compounds. The reported endpoint is percent growth (GI% or GIPRCNT), where numbers from 0 - 100% represent growth inhibition, and numbers from -100% - 0 represent cell death. […]
The panel holds about 83,000 compounds, 20% with a hit somewhere; the sample as a whole holds those more often. Active and inactive are the calls of the source. The calls were made as follows: active = growth percent below 10; inactive = the rest.
Select the correct class. Options are active, inactive and nothing else.

molecule: C=C1CCC2C3(C)COC(c4ccc(SC)cc4)OC3CCC2(C)C1C/C=C1/C(=O)OCC1O (stereo not given)
class.assignment: inactive
--
molecule: O=C(Nc1ccc(CN2CCOCC2)cc1)c1[nH]ncc1Nc1ncnc2sccc12
class.assignment: active
--
molecule: O=C1/C(=C/c2ccccc2)CN(CCC(=O)N2C/C(=C\c3ccccc3)C(=O)/C(=C/c3ccccc3)C2)C/C1=C\c1ccccc1
class.assignment: inactive
--
molecule: O=C1c2cccnc2C(=O)c2c1c(C(=O)OCCN1CCCCC1)c1ccccn21
class.assignment: active
--
molecule: c1ccc2c(Nc3cccc4ccccc34)cccc2c1
class.assignment: inactive

Which outcome was assigned to CC(C)[C@H]1COC(=O)N1[C@@H]1C(=O)N([C@@H](CCC(=O)N2CCN(C3CCCC3)CC2)C(=O)N[C@@H]2CCCc3ccccc32)[C@@H]1/C=C/c1cccc(Br)c1 in this test?
inactive

Which outcome was assigned to O=C1C2CC=CCC2C(=O)N1CNc1ccc(Cl)cc1 (stereo not given) in this test?
inactive

====

The following molecules are listed with their measured growth values.
# System: OVCAR-3 ovarian
# assay.method.text: NCI-60 one-dose screen, 48 h (100 = growth as untreated, 0 = no growth, -100 = all killed)
# run.conditions: 10 µM unless noted
This is part of a sample that, as a whole, favours compounds with a hit. Of some 83,000 tested, about 20% had one in any assay. Calls of active or inactive are those of the source. Rule for the calls: active = growth percent below 10; inactive = the rest.

molecule: COc1cc(NCCCCN=C(N)NC(N)=NC(C)C)c2ncccc2c1
growth: -43.7% (active)
--
molecule: C=C1CC2(OC1=O)C(=O)N(CCCCCCCCCCCCN1C(=O)C3(CC(=C)C(=O)O3)c3ccccc31)c1ccccc12 (stereo not given)
growth: 66.8% (inactive)
--
molecule: O=C(CCN1CCOCC1)Nc1ccc(Cn2nnc3c2C(=O)c2nnn(Cc4ccc(NC(=O)CCN5CCOCC5)cc4)c2C3=O)cc1
growth: -1.65% (active)
--
molecule: Cc1ccc2c(NCCCN(C)C)c3c(C)nn(C)c3nc2c1
growth: 49.3% (inactive)
--
molecule: CSc1ccc(N=C=C(c2ccccc2)c2ccccc2)cc1
growth: 103% (inactive)
--
molecule: COc1cc(/C=C2\CN(C(=O)CCN3CCC(=NO)CC3)C/C(=C\c3cc(OC)c(OC)c(OC)c3)C2=O)cc(OC)c1OC
growth: -97.6% (active)

Param readout= growth; system= OVCAR-3 ovarian; entry= Nc1nc2ccc(-c3nc4ccc5[nH]ncc5c4c4c3CCC4)cc2s1 ; returns value.
39.4% (inactive)

Param readout= growth; system= OVCAR-3 ovarian; entry= N#CC1=C(N)Oc2c(ccc3ccccc23)C1c1cccs1 (stereo not given) ; returns value.
-38.8% (active)

Param readout= growth; system= OVCAR-3 ovarian; entry= COC(=O)[C@H](C(C)C)n1c(=O)c2cc(OC)c(OC)cc2c2cnc3[nH]ccc3c21 ; returns value.
48.8% (inactive)

Param readout= growth; system= OVCAR-3 ovarian; entry= CN1CCCCC1CCN1c2ccccc2Sc2ccc(Cl)cc21 (stereo not given) ; returns value.
81.6% (inactive)

====

# System: NCI-H522 lung
# assay.method.text: NCI-60 one-dose screen, 48 h (100 = growth as untreated, 0 = no growth, -100 = all killed)
# run.conditions: 10 µM unless noted
Compounds without any hit were thinned out: in the full panel of roughly 83,000, 20% have a hit.
Please note: growth exactly at 20% is -1. Only values below 20% get 1.

molecule: O=C(Nc1cccc2[nH]c(C(F)(F)F)nc12)c1ccc(Br)cc1F
class.assignment: 1
//
molecule: O=C1C2CC=CCC2C(=O)N1CNc1ccc(Cl)cc1 (stereo not given)
class.assignment: -1
//
molecule: CC(=O)C1=C(O)C=C2Oc3c(C(=O)/C=C/c4ccccc4)c(O)c(C)c(O)c3[C@]2(C)C1=O
class.assignment: -1

Please check: growth for CC[C@H](CO)Nc1nc(NCc2ccccc2)n2ncc(C(C)C)c2n1 , strictly under 20% or not?
1

Please check: growth for CCN(CC)Cc1cc(Nc2c3ccc(Cl)cc3nc3c(C)cccc23)ccc1O , strictly under 20% or not?
1

Please check: growth for COc1ccc(C/C(C)=C(\c2ccc(OCCN3CCCCCC3)cc2)c2ccc(OC(=O)C3CCCCC3)cc2)cc1 , strictly under 20% or not?
-1

Please check: growth for CCOC(=O)c1c2c(n3ccc(NC(=O)CCN4CCOCC4)cc13)C(=O)c1ncccc1C2=O , strictly under 20% or not?
1

Please check: growth for O=C1OC2C(I)C3CC2C1C3c1ccccc1 (stereo not given) , strictly under 20% or not?
-1

Please check: growth for CCC(c1ccc(O)cc1)C(CC)c1ccc(O)c(F)c1 (stereo not given) , strictly under 20% or not?
-1

Please check: growth for COc1ccc(C2CC(=O)Nc3c2c(C)nn3-c2nc3ccccc3[nH]2)cc1 (stereo not given) , strictly under 20% or not?
-1

====

# Tested on: OVCAR-4 ovarian
# assay.method.text: NCI-60 one-dose screen, 48 h (100 = growth as untreated, 0 = no growth, -100 = all killed)
# run.conditions: 10 µM unless noted
Compounds without any hit were thinned out: in the full panel of roughly 83,000, 20% have a hit.
Please note: growth exactly at -80% is 0 (no). Only values below -80% get 1 (yes).

Please check: growth for COc1ccc(-n2cc(-c3ccccc3)c3c(SCC(=O)N/N=C/c4ccc([N+](=O)[O-])cc4)ncnc32)cc1 , strictly under -80% or not?
0 (no)

Please check: growth for CCN(CC)Cc1cc(Nc2c3ccccc3nc3cc(Cl)ccc23)ccc1O , strictly under -80% or not?
1 (yes)

Please check: growth for Cc1cc(N/N=C/c2nc(-c3ccc(Cl)cc3)oc2C)c2cc(Br)ccc2n1 , strictly under -80% or not?
1 (yes)

Please check: growth for Cc1cc(N/N=C/c2nc(-c3ccc(Cl)cc3)oc2C)c2cc(Cl)ccc2n1 , strictly under -80% or not?
1 (yes)

Please check: growth for COc1ccc(-c2cc(NC(=O)Nc3ccc(O)cc3)no2)cc1 , strictly under -80% or not?
0 (no)

====

# Test system: OVCAR-8 ovarian
# assay.method.text: NCI-60 one-dose screen, 48 h
# run.conditions: 10 µM unless noted
Compounds without any hit were thinned out: in the full panel of roughly 83,000, 20% have a hit. Activity calls are given as the source filed them. How the source made its calls: active means growth percent below 10; inactive means the rest.
Select the correct class. Options are y = active, n = inactive and nothing else.

The examples below pair each entry with its known result.
compound: O=C1OC2C(I)C3CC2C1C3c1ccccc1 (stereo unspecified)
class.assignment: n
--
compound: N#Cc1c(N)nc(N)nc1Nc1ccc(Br)cc1
class.assignment: n
--
compound: CN(C)CC(=O)Nc1ccc(Cn2nnc3c2C(=O)c2nnn(Cc4ccc(NC(=O)CN(C)C)cc4)c2C3=O)cc1
class.assignment: y
--
compound: COC(=O)[C@@H]1CC[C@]2(C)[C@H](CC[C@@H]3O[C@@]32C)[C@@]1(C)CC(=O)c1ccoc1
class.assignment: n
--
compound: OC(c1cccc(C(F)(F)F)c1)c1cnccc1NC1CCCCCC1 (stereo unspecified)
class.assignment: n

Which outcome was assigned to CCCCNc1ccc2c3c1cccc3c(=O)n1c3ccccc3nc21 in this test?
n

Which outcome was assigned to O=C(Cc1ccccc1)c1ccc(Cl)cc1 in this test?
n

Which outcome was assigned to CC[C@H](Nc1ncnc(N)c1C(N)=O)c1nc2cccc(NCc3ccc(C(=O)NO)cc3)c2c(=O)n1-c1ccccc1 in this test?
n

Which outcome was assigned to CCC(c1ccccc1)C(CC)c1ccc(O)c(O)c1 (stereo unspecified) in this test?
n

Which outcome was assigned to CC1=C(NCCN2CCCC2)C(=O)c2c(OCc3ccc(C(F)(F)F)cc3)cccc2C1=O in this test?
n

Which outcome was assigned to O=c1cc(-c2ccccc2)[nH]c2ccccc12 in this test?
n

====

# Tested on: RXF 393 renal
# assay.method.text: NCI-60 one-dose screen, 48 h
# run.conditions: 10 µM unless noted
The panel holds about 83,000 compounds, 20% with a hit somewhere; the sample as a whole holds those more often. Active and inactive are the calls of the source. Rule for the calls: active = growth percent below 10; inactive = the rest.
Select the correct class. Options are class 1 = active, class 0 = inactive and nothing else.

molecule: C[C@@H]1CC[C@@H]2[C@@H]1[C@H](OC(=O)/C=C/c1ccccc1)[C@]1(c3ccccc3)C[C@@H](OC(=O)CO)[C@@]2(C)O1
class.assignment: class 0
//
molecule: CN1CCN(Cc2ccc(NC(=O)c3cncc(C#Cc4cnc(N)c5cccnc45)c3)cc2C(F)(F)F)CC1
class.assignment: class 1
//
molecule: COc1ccc(C/C(C)=C(\c2ccc(OCCN3CCCCCC3)cc2)c2ccc(OC(=O)C3CCCCC3)cc2)cc1
class.assignment: class 0

Which outcome was assigned to COc1ccc(C(=O)c2sc3nc(-c4ccccc4OC)ccc3c2N)cc1OC in this test?
class 0

Which outcome was assigned to O=C(Nc1cccc2[nH]c(C(F)(F)F)nc12)c1ccc(Br)cc1F in this test?
class 0

Which outcome was assigned to COc1ccc(-c2cn3c(-c4ccc(OC)cc4)cnc3c(Oc3ccc4c(C)cc(=O)oc4c3)n2)cc1 in this test?
class 1

Which outcome was assigned to O=C(CN1CCN(c2cc3c(cc2F)c(=O)c(C(=O)N/N=C/c2ccccc2)cn3C2CC2)CC1)N/N=C\c1ccccc1 in this test?
class 0

Which outcome was assigned to CC1=NNC(=O)C1C (centres undefined) in this test?
class 0

Which outcome was assigned to O=c1c2cccc3c(NC4CCCCC4)ccc(c32)c2nc3ccccc3n12 in this test?
class 0

Which outcome was assigned to CCOC(=O)c1cnc2ccc(Br)cc2c1Nc1cccc(S(=O)(=O)NC)c1 in this test?
class 0

Which outcome was assigned to Cc1cc(=O)oc2cc(Oc3nc(-c4ccc(Cl)cc4)cn4c(-c5ccc(Cl)cc5)cnc34)ccc12 in this test?
class 0
